study target: CCR3 receptor (Homo sapiens, UniProt P51677)
Construct: expressed in transfected cells; host or cells: K562 cells
Sequence (P51677 whole entry): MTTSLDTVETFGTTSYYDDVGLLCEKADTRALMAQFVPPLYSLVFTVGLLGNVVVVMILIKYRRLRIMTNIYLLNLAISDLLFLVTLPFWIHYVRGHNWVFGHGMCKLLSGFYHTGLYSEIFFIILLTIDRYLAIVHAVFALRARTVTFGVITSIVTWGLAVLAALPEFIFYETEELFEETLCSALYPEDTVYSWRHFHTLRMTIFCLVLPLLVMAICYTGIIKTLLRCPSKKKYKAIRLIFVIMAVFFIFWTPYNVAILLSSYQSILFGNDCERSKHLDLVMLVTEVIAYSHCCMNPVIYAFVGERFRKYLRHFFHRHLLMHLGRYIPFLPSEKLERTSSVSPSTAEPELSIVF
test summary: Inhibition of eotaxin-induced intracellular calcium concentration increase in CCR3-expressing cells
Assay type: cell-based
reported conditions: 10 μM concentration of compound; CCR3-expressing K562 cells; human eotaxin 0.5 μg/ml; read-out: inhibition of eotaxin-induced intracellular calcium concentration increase (Suppression)
Each item that follows carries a reported inhibition at 10 µM.

# count of solved cases: 5
c1ccc(CCCCN2CCC(CNc3nc4ccccc4[nH]3)CC2)cc1 [1-2-170]; 50 to 80%
CCNC(=O)Nc1cccc2[nH]c(NCC3CCN(Cc4ccc(Cl)c(Cl)c4)CC3)nc12 [1-3-59]; ≥ 80%
Nc1cccc2[nH]c(NCC3CCN(Cc4ccc(Cl)c(Cl)c4)CC3)nc12 [1-3-61]; ≥ 80%
O=C(O)c1ccc2[nH]c(NCC3CCN(CCCc4ccccc4)CC3)nc2c1 [1-5-20]; 50 to 80%
Clc1ccc(CN2CCC(CNc3nc4ccccc4[nH]3)CC2)cc1Cl [1-1-1]; ≥ 80%

// inhibition at 10 µM lookup, compound = Cn1c(CN2CCC(CNc3nc4ccccc4[nH]3)CC2)cc2ccccc21 [1-2-1] , result: ≥ 80%
